- TARGET_SYSTEM: TrkA (Homo sapiens)
- Construct: aa 441-796; His; purchased Invitrogen PV3144
- EXPERIMENT_DESCRIPTION: Isolated TRK enzyme assay (HTRF KinEASE-TK kit), PV3144 TrkA enzyme assay
- Type: biochemical
- PROTOCOL_CONDITIONS: PV3144 TrkA enzyme assay, recombinant His-tagged cytoplasmic domain aa 441-796, 4 nM enzyme, 40 uM ATP; arithmetic mean where more than one reading; read-out: Trka enzyme (IC50)
pIC50: −log10 of the molar value.
Each entry gets Condition not met if its pIC50 stays under 7, and Condition met if its pIC50 is 7 or above.

Before answering, review these 2 worked examples.
| STRUCTURE_STRING | LABEL |
| --- | --- |
| CC(C)(CO)n1cc(C(=O)c2cc(NC(=O)Cn3cc(C(F)(F)F)nn3)ccn2)c2cncnc21 | Condition met |
| O=C(Cc1ccc(Cl)cc1)Nc1cc(C(=O)c2cn(C(CO)CO)c3ncncc23)ccn1 | Condition met |

# check: pIC50 of CC(C)n1cc(C(=O)c2ccnc(NC(=O)Cn3cc(C(F)(F)F)nn3)c2)c2cncnc21 is greater than or equal to 7
Condition met

Hello, I need to know if CC(C)n1cc(C(=O)c2ccnc(NC(=O)Cc3ccc(C(F)(F)F)cc3)c2)c2cncnc21 has measured pIC50 not below 7. Thanks!
Condition met

###

In this section we review reported pIC50 values for a set of compounds.
- TARGET_SYSTEM: TrkA (Homo sapiens, UniProt P04629)
- Construct: aa 441-796; His; purchased Invitrogen PV3144
- Sequence (P04629 441-796): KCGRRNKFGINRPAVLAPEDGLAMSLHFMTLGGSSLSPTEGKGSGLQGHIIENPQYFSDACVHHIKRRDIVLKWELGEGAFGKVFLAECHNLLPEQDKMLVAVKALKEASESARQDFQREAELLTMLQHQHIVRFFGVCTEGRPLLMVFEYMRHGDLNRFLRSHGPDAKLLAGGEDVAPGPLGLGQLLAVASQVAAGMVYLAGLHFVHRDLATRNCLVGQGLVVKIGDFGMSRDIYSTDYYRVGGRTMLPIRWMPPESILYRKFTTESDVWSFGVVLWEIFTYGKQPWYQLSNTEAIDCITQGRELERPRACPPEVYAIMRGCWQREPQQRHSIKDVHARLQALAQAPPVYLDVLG
- EXPERIMENT_DESCRIPTION: Isolated TRK enzyme assay (HTRF KinEASE-TK kit), PV3144 TrkA enzyme assay
- Type: biochemical
- PROTOCOL_CONDITIONS: PV3144 TrkA enzyme assay, recombinant His-tagged cytoplasmic domain aa 441-796, 4 nM enzyme, 40 uM ATP; arithmetic mean where more than one reading; read-out: Trka enzyme (IC50)
The scale used: pIC50 is minus the common logarithm of the concentration in molar units.

Read the entry C[C@@H](CO)n1cc(C(=O)c2cc(NC(=O)Cn3ccc(C(F)(F)F)n3)ccn2)c2cncnc21 and write its reported pIC50.
6.88

###

- TARGET_SYSTEM: TrkA (Homo sapiens)
- Construct: aa 441-796; His; purchased Invitrogen PV3144
- EXPERIMENT_DESCRIPTION: Isolated TRK enzyme assay (HTRF KinEASE-TK kit), PV3144 TrkA enzyme assay
- Assay type: biochemical
- PROTOCOL_CONDITIONS: PV3144 TrkA enzyme assay, recombinant His-tagged cytoplasmic domain aa 441-796, 4 nM enzyme, 40 uM ATP; arithmetic mean where more than one reading; read-out: Trka enzyme (IC50)
PARAMETER: IC50 (nM)
Could you give me the number in nM? Just the number is fine.

Before answering, review these 2 worked examples.
| COMPOUND | IC50 [nM] |
| --- | --- |
| CC(C)c1cn(CC(=O)Nc2ccnc(C(=O)c3cn([C@@H](C)CO)c4ncncc34)c2)nn1 [Example 29] | 74.2 |
| O=C(Cc1cccc(C(F)(F)F)c1)Nc1ccnc(C(=O)c2cn(C(CO)CO)c3ncncc23)c1 [Example 96] | 139 |

Now, please, on to the next compound.
Return IC50 (reported value) for this compound: C[C@@H](CO)n1cc(C(=O)c2cc(NC(=O)Cc3ccc(C(F)(F)F)cc3)ccn2)c2cncnc21 [Example 17]
72.2

###

- TARGET_SYSTEM: TrkA (Homo sapiens)
- Construct: aa 441-796; His; purchased Invitrogen PV3144
- EXPERIMENT_DESCRIPTION: Isolated TRK enzyme assay (HTRF KinEASE-TK kit), PV3144 TrkA enzyme assay
- Assay type: biochemical
- PROTOCOL_CONDITIONS: PV3144 TrkA enzyme assay, recombinant His-tagged cytoplasmic domain aa 441-796, 4 nM enzyme, 40 uM ATP; arithmetic mean where more than one reading; read-out: Trka enzyme (IC50)
Measured pIC50 values are reported for all entries that follow.
// field semantics: pIC50 = negative decimal log of concentration (mol/L)

Provide pIC50 value for the following molecule: O=C(Cc1ccc(Cl)cc1)Nc1cc(C(=O)c2cn(CC3(CO)COC3)c3ncncc23)ccn1
6.90

###

Measured IC50, listed per entry for reference.
- TARGET_SYSTEM: TrkA (Homo sapiens)
- Construct: aa 441-796; His; purchased Invitrogen PV3144
- EXPERIMENT_DESCRIPTION: Isolated TRK enzyme assay (HTRF KinEASE-TK kit), PV3144 TrkA enzyme assay
- Assay type: biochemical
- PROTOCOL_CONDITIONS: PV3144 TrkA enzyme assay, recombinant His-tagged cytoplasmic domain aa 441-796, 4 nM enzyme, 40 uM ATP; arithmetic mean where more than one reading; read-out: Trka enzyme (IC50)
Numeric only. Scale: nM

| STRUCTURE_STRING | TARGET_SYSTEM | PARAMETER | RESULT_VALUE |
| --- | --- | --- | --- |
| C[C@@H](CO)n1cc(C(=O)c2cc(NC(=O)Cn3cc(C(F)(F)F)nn3)ccn2)c2cncnc21 | TrkA (Homo sapiens) | IC50 | 78.1 |
| Cc1cc(C)n(CC(=O)Nc2cc(C(=O)c3cn(C(C)C)c4ncncc34)ccn2)n1 | TrkA (Homo sapiens) | IC50 | 71.2 |
| Cc1cc(C(=O)c2cn(C(C)C)c3ncncc23)cc(NC(=O)Cc2ccc(C#N)c(C(F)(F)F)c2)n1 | TrkA (Homo sapiens) | IC50 | 118 |

Lab note: next compound to report on.
Supply reported IC50 belonging to this compound: C[C@H](CO)n1cc(C(=O)c2cc(NC(=O)Cc3cccc(C(F)(F)F)c3)ccn2)c2cncnc21
97.6

###

Catalogue of log10 of IC50 readings, one per entry.
- TARGET_SYSTEM: TrkA (Homo sapiens, UniProt P04629)
- Construct: aa 441-796; His; purchased Invitrogen PV3144
- EXPERIMENT_DESCRIPTION: Isolated TRK enzyme assay (HTRF KinEASE-TK kit), PV3144 TrkA enzyme assay
- Assay type: biochemical
- PROTOCOL_CONDITIONS: PV3144 TrkA enzyme assay, recombinant His-tagged cytoplasmic domain aa 441-796, 4 nM enzyme, 40 uM ATP; arithmetic mean where more than one reading; read-out: Trka enzyme (IC50)
In our notation, the value equals log10 of IC50 in nM.

Would you please look over these solved cases?
| STRUCTURE_STRING | PARAMETER | RESULT_VALUE |
| --- | --- | --- |
| CC(C)n1cc(C(=O)c2ccnc(NC(=O)Cc3ccc(Cl)c(Cl)c3)c2)c2cncnc21 | log10 of IC50 | 0.65 |
| N#Cc1ccc(CC(=O)Nc2cc(C(=O)c3cn(C4CC4)c4ncncc34)ccn2)cc1 | log10 of IC50 | 2.61 |
| O=C(Cc1cccc(Cl)c1)Nc1cc(C(=O)c2cn(CCO)c3ncncc23)ccn1 | log10 of IC50 | 2.39 |

Provide log10 of IC50 value for the following compound: CC(C)(CO)n1cc(C(=O)c2ccc(C#N)c(NC(=O)Cn3cc(C(F)(F)F)nn3)c2)c2cnc(N)nc21
1.78

Please look at this compound and report its log10 of IC50: CC(C)(C)n1cc(C(=O)c2ccnc(NC(=O)Cc3ccc(C#N)cc3)c2)c2cncnc21
1.40

Retrieve log10 of IC50 measured for Cc1cc(C)n(CC(=O)Nc2cc(C(=O)c3cn([C@H]4CC[C@H](O)CC4)c4ncncc34)ccn2)n1 and print it.
2.26

Give me measured log10 of IC50, please, for this compound: CC(C)(CO)n1cc(C(=O)c2ccc(C#N)c(NC(=O)Cc3ccc(Cl)cn3)c2)c2cnc(N)nc21
1.51

Kindly indicate its recorded log10 of IC50. Item: CC(C)(CO)n1cc(C(=O)c2cc(NC(=O)Cc3ccc(Cl)cn3)ccn2)c2cncnc21
1.06

###

Catalogue of IC50 readings, one per entry.
- TARGET_SYSTEM: TrkA (Homo sapiens, UniProt P04629)
- Construct: aa 441-796; His; purchased Invitrogen PV3144
- EXPERIMENT_DESCRIPTION: Isolated TRK enzyme assay (HTRF KinEASE-TK kit), PV3144 TrkA enzyme assay
- Type: biochemical
- PROTOCOL_CONDITIONS: PV3144 TrkA enzyme assay, recombinant His-tagged cytoplasmic domain aa 441-796, 4 nM enzyme, 40 uM ATP; arithmetic mean where more than one reading; read-out: Trka enzyme (IC50)
Your answer is read as nM, so omit the unit and give the number.

| MOLECULE | PARAMETER | UNIT_ANNOTATION | RESULT_VALUE |
| --- | --- | --- | --- |
| CC1(n2cc(C(=O)c3cc(NC(=O)Cc4ccc(Cl)cn4)ccn3)c3cncnc32)COC1 [Example 168] | IC50 | nM | 155 |
| Cc1cc(C(=O)c2cn(C(C)C)c3ncncc23)cc(NC(=O)Cc2ccc(F)cc2)n1 [Example 77] | IC50 | nM | 226 |
| CC(C)n1cc(C(=O)c2ccnc(NC(=O)Cc3ccc(C#N)c(C(F)(F)F)c3)c2)c2cncnc21 [Example 71] | IC50 | nM | 49.2 |
| CC(C)n1cc(C(=O)c2ccnc(NC(=O)Cc3ccc(C#N)cc3)c2)c2cncnc21 [Example 68] | IC50 | nM | 51 |
| Cc1cc(C(F)(F)F)nn1CC(=O)Nc1cc(C(=O)c2cn(C(C)C)c3ncncc23)ccc1C#N [Example 35] | IC50 | nM | 10.9 |
| CC(C)(CO)n1cc(C(=O)c2cc(NC(=O)Cc3ccc(C#N)cc3)ccn2)c2cnc(N)nc21 [Example 51] | IC50 | nM | 78.7 |
| Cc1ccnn1CC(=O)Nc1cc(C(=O)c2cn(C(C)C)c3ncncc23)ccn1 [Example 160] | IC50 | nM | 86.3 |
| CC(CO)(CO)n1cc(C(=O)c2cc(NC(=O)Cc3ccc(C#N)cc3)ccn2)c2cncnc21 [Example 107] | IC50 | nM | 467 |

Output reported IC50 of the molecule N#Cc1ccc(CC(=O)Nc2cc(C(=O)c3cn([C@H]4CC[C@H](O)CC4)c4ncncc34)ccn2)cc1 [Example 2] on TrkA (Homo sapiens, UniProt P04629).
84
